Every entry's value here was drawn from ChEMBL document CHEMBL1136760.

Target: Sodium-dependent dopamine transporter (Rattus norvegicus)
Sequence (P23977 whole entry): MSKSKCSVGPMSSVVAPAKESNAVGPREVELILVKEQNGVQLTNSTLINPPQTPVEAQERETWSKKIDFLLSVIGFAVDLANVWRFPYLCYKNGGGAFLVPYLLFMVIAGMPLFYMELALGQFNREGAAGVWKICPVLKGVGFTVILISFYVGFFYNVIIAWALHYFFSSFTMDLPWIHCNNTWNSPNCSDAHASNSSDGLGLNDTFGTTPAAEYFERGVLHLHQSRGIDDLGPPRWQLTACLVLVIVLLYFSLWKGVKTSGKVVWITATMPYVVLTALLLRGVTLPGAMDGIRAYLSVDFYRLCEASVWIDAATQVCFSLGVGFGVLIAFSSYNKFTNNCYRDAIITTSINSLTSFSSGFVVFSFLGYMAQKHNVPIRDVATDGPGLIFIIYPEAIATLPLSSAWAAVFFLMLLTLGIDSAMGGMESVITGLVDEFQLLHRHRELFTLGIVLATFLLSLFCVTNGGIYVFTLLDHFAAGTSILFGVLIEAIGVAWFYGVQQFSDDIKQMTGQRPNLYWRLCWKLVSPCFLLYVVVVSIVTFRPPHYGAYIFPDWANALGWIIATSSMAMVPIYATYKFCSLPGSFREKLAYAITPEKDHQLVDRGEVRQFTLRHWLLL
Assay: Inhibition of [3H]WIN-35428 binding to the cocaine binding site on the dopamine transporter (DAT) in synaptosomal membrane preparations from rat striatal tissue.
Format: cell membranes, Striatum
Measured log10(IC50) values are reported for all entries that follow.
Please note: log10 values; quantity IC50; unit nM.

QUERY: Param item = CN1CC2CCC(C1)C2(O)c1ccccc1 (stereo not drawn) ; retrieve measured log10(IC50).
RESULT: 4.00

QUERY: Param item = c1ccc(CN2CC3CCC(C2)C3OC(c2ccccc2)c2ccccc2)cc1 (stereo in doubt; 17a) ; retrieve measured log10(IC50).
RESULT: 2.56

***
QUERY: Param item = c1ccc(CN2CC3CCC(C2)C3OC(c2ccccc2)c2ccccc2)cc1 (stereo in doubt; 17b) ; retrieve measured log10(IC50).
RESULT: 2.73

QUERY: Param item = c1ccc(CN2CC3CCC(C3)C2)cc1 ; retrieve measured log10(IC50).
RESULT: 4.39

QUERY: Param item = Clc1ccc(C2C3CCC2CN(Cc2ccccc2)C3)cc1 (stereo not drawn) ; retrieve measured log10(IC50).
RESULT: 1.98

QUERY: Param item = CN1CC2CCC(C1)C2c1ccccc1 (stereo not drawn) ; retrieve measured log10(IC50).
RESULT: 2.56

QUERY: Param item = Clc1ccc(C2C3CCC2CNC3)cc1 (stereo not drawn) ; retrieve measured log10(IC50).
RESULT: 1.91
